# Tested on: third instar larvae of Spodoptera litura
# method: whole plant or invertebrate
# Type: in vivo
# measurement.context: read-out: Larvicidal activity (%) at 48 h, Average; 48 h; 25 ppm; average of three replicates; listed as Ref.
quantity: mortality (%)
Express your answer in %, writing the number without its unit.

Prompt: State its mortality on third instar larvae of Spodoptera litura: CNC(=O)c1cc(Cl)cc(C)c1NC(=O)c1cc(Br)nn1-c1ncccc1Cl [Chlorantraniliprole, chlorantraniliprole, reference compound]
Response: 66.7

###

# method: Equilibrium solubility (μSOL)
# Assay type: physicochemical
# measurement.context: 25 °C, pH 7.4, aqueous buffer, thermodynamic from solid
quantity: solubility (µg/mL)
A number alone suffices; assume µg/mL.

Prompt: What value of measured solubility is listed for CNC(=O)c1cc(Cl)cc(C)c1NC(=O)c1cc(Br)nn1-c1ncccc1Cl [Chlorantraniliprole, chlorantraniliprole, reference compound] ?
Response: 10.4
